Details: in ethanol, 285.65 K

smi: CC(C)C(=O)OCC(=O)[C@@]12O[C@H](C3CCCCC3)O[C@@H]1C[C@H]1[C@@H]3CCC4=CC(=O)C=C[C@]4(C)[C@H]3[C@@H](O)C[C@@]12C
solubility (mole fraction): 0.00398

###

Details: in ethanol, 300.65 K
metric: solubility (mole fraction)

smi: CC(C)C(=O)OCC(=O)[C@@]12O[C@H](C3CCCCC3)O[C@@H]1C[C@H]1[C@@H]3CCC4=CC(=O)C=C[C@]4(C)[C@H]3[C@@H](O)C[C@@]12C
recordedNumber: 0.011

###

Details: in ethanol, 278.15 K
metric: solubility (mole fraction)

smi: CC(C)C(=O)OCC(=O)[C@@]12O[C@H](C3CCCCC3)O[C@@H]1C[C@H]1[C@@H]3CCC4=CC(=O)C=C[C@]4(C)[C@H]3[C@@H](O)C[C@@]12C
metric: solubility (mole fraction)
recordedNumber: 0.00231

###

Settings: in acetonitrile, 308.15 K

smi: CC(C)C(=O)OCC(=O)[C@@]12O[C@H](C3CCCCC3)O[C@@H]1C[C@H]1[C@@H]3CCC4=CC(=O)C=C[C@]4(C)[C@H]3[C@@H](O)C[C@@]12C
solubility (mole fraction): 0.0126

###

Details: in ethanol, 305.65 K
metric: solubility (mole fraction)

smi: CC(C)C(=O)OCC(=O)[C@@]12O[C@H](C3CCCCC3)O[C@@H]1C[C@H]1[C@@H]3CCC4=CC(=O)C=C[C@]4(C)[C@H]3[C@@H](O)C[C@@]12C
metric: solubility (mole fraction)
result: 0.0151

###

Details: in n-butanol, 280.65 K

smi: CC(C)C(=O)OCC(=O)[C@@]12O[C@H](C3CCCCC3)O[C@@H]1C[C@H]1[C@@H]3CCC4=CC(=O)C=C[C@]4(C)[C@H]3[C@@H](O)C[C@@]12C
solubility (mole fraction): 0.0689

###

Conditions: in isopropanol, 310.65 K
metric: solubility (mole fraction)

smi: CC(C)C(=O)OCC(=O)[C@@]12O[C@H](C3CCCCC3)O[C@@H]1C[C@H]1[C@@H]3CCC4=CC(=O)C=C[C@]4(C)[C@H]3[C@@H](O)C[C@@]12C
metric: solubility (mole fraction)
result: 0.0536

###

Conditions: in ethyl acetate, 278.15 K

smi: CC(C)C(=O)OCC(=O)[C@@]12O[C@H](C3CCCCC3)O[C@@H]1C[C@H]1[C@@H]3CCC4=CC(=O)C=C[C@]4(C)[C@H]3[C@@H](O)C[C@@]12C
solubility (mole fraction): 0.0515

###

Conditions: in toluene, 288.15 K

smi: CC(C)C(=O)OCC(=O)[C@@]12O[C@H](C3CCCCC3)O[C@@H]1C[C@H]1[C@@H]3CCC4=CC(=O)C=C[C@]4(C)[C@H]3[C@@H](O)C[C@@]12C
solubility (mole fraction): 0.0392

###

Details: in n-propanol, 300.65 K

smi: CC(C)C(=O)OCC(=O)[C@@]12O[C@H](C3CCCCC3)O[C@@H]1C[C@H]1[C@@H]3CCC4=CC(=O)C=C[C@]4(C)[C@H]3[C@@H](O)C[C@@]12C
solubility (mole fraction): 0.05

###

Details: in isopropanol, 308.15 K

smi: CC(C)C(=O)OCC(=O)[C@@]12O[C@H](C3CCCCC3)O[C@@H]1C[C@H]1[C@@H]3CCC4=CC(=O)C=C[C@]4(C)[C@H]3[C@@H](O)C[C@@]12C
solubility (mole fraction): 0.047
